Reported values of pKd for individual entries
Target: T1, EsCas13d, nuclease-dead (Eubacterium siraeum, UniProt B0MS50, R295A;H300A;R849A;H854A)
T1 sequence: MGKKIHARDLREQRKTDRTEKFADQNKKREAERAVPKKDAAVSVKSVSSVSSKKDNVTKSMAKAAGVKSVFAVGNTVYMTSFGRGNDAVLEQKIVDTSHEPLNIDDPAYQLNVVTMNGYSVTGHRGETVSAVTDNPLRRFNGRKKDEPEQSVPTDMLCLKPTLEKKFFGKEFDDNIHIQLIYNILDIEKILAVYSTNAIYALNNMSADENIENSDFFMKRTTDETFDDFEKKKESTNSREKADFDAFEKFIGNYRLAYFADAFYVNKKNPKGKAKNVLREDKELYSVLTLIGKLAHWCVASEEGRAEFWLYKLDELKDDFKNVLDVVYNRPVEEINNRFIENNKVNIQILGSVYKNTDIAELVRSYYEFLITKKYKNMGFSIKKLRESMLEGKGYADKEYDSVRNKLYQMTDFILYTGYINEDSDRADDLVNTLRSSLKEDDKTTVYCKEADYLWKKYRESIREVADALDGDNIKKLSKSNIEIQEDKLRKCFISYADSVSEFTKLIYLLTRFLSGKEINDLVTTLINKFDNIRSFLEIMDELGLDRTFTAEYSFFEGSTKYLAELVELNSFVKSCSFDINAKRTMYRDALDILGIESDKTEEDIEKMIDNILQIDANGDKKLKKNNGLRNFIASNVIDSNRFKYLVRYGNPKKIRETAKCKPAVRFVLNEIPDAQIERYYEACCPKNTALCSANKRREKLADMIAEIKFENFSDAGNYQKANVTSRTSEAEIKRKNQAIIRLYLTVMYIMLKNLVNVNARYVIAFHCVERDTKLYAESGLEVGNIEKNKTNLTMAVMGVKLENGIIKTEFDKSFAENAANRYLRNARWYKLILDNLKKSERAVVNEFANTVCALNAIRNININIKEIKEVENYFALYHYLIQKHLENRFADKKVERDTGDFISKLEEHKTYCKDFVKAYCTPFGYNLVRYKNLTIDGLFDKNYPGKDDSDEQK
Assay: crRNA (strand 1, pre-loaded); Mg2+; 40 mM Tris-HCl pH 7.5, 150 mM NaCl, 6 mM MgCl2, 1 mM DTT, 0.1% Tween-20, 0.2 mg/ml BSA; 25 C; 10 min per concentration, then washed
Conditions: tags: His6-TwinStrep-SUMO cleaved; N-terminal SNAP kept (SNAP-Surface 488); label: 3' end held by stalled T7 RNA polymerase
In plain terms, pKd is the concentration in mol/L turned into minus its base-10 logarithm.

Some binders with recorded pKd:
Binder	pKd
target 1 insC 3' of 14,insC 3' of 9 (mixed) RNA 1: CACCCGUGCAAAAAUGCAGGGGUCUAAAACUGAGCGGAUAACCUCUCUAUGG RNA 2: GGGAAUGGAUCCACAUCUACGAAUUCGUACCAUAGAGACGGUUACUCCGCUCACCGAGAUCGGAAGAGCACACGU	7.38
target 2 MT 5'PFS CAU 3'PFS CCG (mixed) RNA 1: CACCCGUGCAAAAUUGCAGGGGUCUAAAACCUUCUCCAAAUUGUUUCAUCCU RNA 2: GGGAAUGGAUCCACAUCUACGAAUUCCAUAGGAUGAAACAAUUUGGAGAAGCCGAGAUCGGAAGAGCACACGU	8.39
target 2 MT 5'PFS ACU 3'PFS UCA (mixed) RNA 1: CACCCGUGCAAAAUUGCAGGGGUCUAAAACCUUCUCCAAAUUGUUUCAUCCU RNA 2: GGGAAUGGAUCCACAUCUACGAAUUCACUAGGAUGAAACAAUUUGGAGAAGUCAAGAUCGGAAGAGCACACGU	8.14

Here's the next entry for you.
// sample target 1 A1C,C7A (mixed) RNA 1: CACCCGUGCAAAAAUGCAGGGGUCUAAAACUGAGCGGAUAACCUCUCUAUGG RNA 2: GGGAAUGGAUCCACAUCUACGAAUUCGUACCAUAGAGAGGUUAUACGCUCCCCGAGAUCGGAAGAGCACACGU , its pKd was 8.01

Where these numbers come from: paper PMC10786891
